Test: Induction of IL4 secretion in C57BL/6 mouse spleen cells at 100 ng/ml after 72 hrs relative to OCH
Format: functional
Observed Property: Activity (%)
Please respond with the number in % and leave the unit unwritten.

Solved entries (count: 5):
- Molecular String: "CCCCCCCCCCCCCCCCCCCCCCCC(=O)N[C@@H](CO[C@H]1O[C@H](CO)[C@H](O)[C@H](O)[C@H]1O)[C@H](O)[C@H](O)CCCC"
  Observed Property: "Activity"
  Number: 115
- Molecular String: "CCCCCCCCCCCCCCCCCCCCCCCC(=O)N[C@@H](CO[C@H]1O[C@H](CCl)[C@H](O)[C@H](O)[C@H]1O)[C@H](O)[C@H](O)CC1CCCC1"
  Observed Property: "Activity"
  Number: 98
- Molecular String: "CCCCCCCCCCCCCCCCCCCCCCCCC(=O)N[C@@H](CO[C@H]1O[C@H](CO)[C@H](O)[C@H](O)[C@H]1O)[C@H](O)[C@@H](O)CCCCC"
  Observed Property: "Activity"
  Number: 154
- Molecular String: "CCCCCCCCCCCCCCCCCCCC(=O)N[C@@H](CO[C@H]1O[C@H](CO)[C@H](O)[C@H](O)[C@H]1O)[C@H](O)[C@H](O)CCCCC"
  Observed Property: "Activity"
  Number: 6
- Molecular String: "CCCCCCCCCCCCCCCCCCCCCCCCCC(=O)N[C@@H](CO[C@H]1O[C@H](CO)[C@H](O)[C@H](O)[C@H]1O)[C@H](O)[C@H](O)CCCCC"
  Observed Property: "Activity"
  Number: 129

Please supply the value of reported Activity for the item CCCCCCCCCCCCCCCCCCCCCCC(=O)N[C@@H](CO[C@H]1O[C@H](CO)[C@H](O)[C@H](O)[C@H]1O)[C@H](O)[C@H](O)CCCCC 103

Quickly give me recorded Activity for CCCCCCCCCCCCCCCCCCCCCCCCCCCC(=O)N[C@@H](CO[C@H]1O[C@H](CO)[C@H](O)[C@H](O)[C@H]1O)[C@H](O)[C@H](O)CCCCC 178

Quick one: give measured Activity for CCCCCCCCCCCCCCCCCCCCCCCC(=O)N[C@@H](CO[C@H]1O[C@H](CO)[C@H](O)[C@H](O)[C@H]1O)[C@H](O)[C@H](O)CCC 105

Tell me measured Activity for CCCCCCCCCCCCCCCCCCCCCC(=O)N[C@@H](CO[C@H]1O[C@H](CO)[C@H](O)[C@H](O)[C@H]1O)[C@H](O)[C@H](O)CCCCC please. 51

Please report Activity for the following compound: CCCCCCCCCCCCCCCCCCCCCCCC(=O)N[C@@H](CO[C@H]1O[C@H](CCl)[C@H](O)[C@H](O)[C@H]1O)[C@H](O)[C@H](O)Cc1ccccc1 211

---

Examples of compounds with documented Activity follow.
Assay: Induction of IFN gamma secretion in C57BL/6 mouse spleen cells at 100 ng/ml after 72 hrs relative to OCH
Type: functional
Response body: numeric value in %, unit text excluded.

# annotated cases, reported Activity shown
- Compound: "CCCCCCCCCCCCCCCCCCCCCCCCCC(=O)N[C@@H](CO[C@H]1O[C@H](CO)[C@H](O)[C@H](O)[C@H]1O)[C@H](O)[C@H](O)CCCCCCCCCCCCCC [RGI-7000]"
  Activity (%): 569
- Compound: "CCCCCCCCCCCCCCCCCCCCCCCC(=O)N[C@@H](CO[C@H]1O[C@H](CO)[C@H](O)[C@H](O)[C@H]1O)[C@H](O)[C@H](O)CC"
  Activity (%): 81
- Compound: "CCCCCCCCCCCCCCCCCCCCCC(=O)N[C@@H](CO[C@H]1O[C@H](CO)[C@H](O)[C@H](O)[C@H]1O)[C@H](O)[C@H](O)CCCCC"
  Activity (%): 46
- Compound: "CCCCCCCCCCCCCCCCCCCCCCCCCC(=O)N[C@@H](CO[C@H]1O[C@H](CO)[C@H](O)[C@H](O)[C@H]1O)[C@H](O)[C@H](O)CCCCC"
  Activity (%): 504
- Compound: "CCCCCCCCCCCCCCCCCCCCCCCC(=O)N[C@@H](CO[C@H]1O[C@H](CO)[C@H](O)[C@H](O)[C@H]1O)[C@H](O)[C@H](O)CCCCC"
  Activity (%): 100
- Compound: "CCCCCCCCCCCCCCCCCCCCCCC(=O)N[C@@H](CO[C@H]1O[C@H](CO)[C@H](O)[C@H](O)[C@H]1O)[C@H](O)[C@H](O)CCCCC"
  Activity (%): 93

Recall and state the measured Activity for CCCCCCCCCCCCCCCCCCCCCCCC(=O)N[C@@H](CO[C@H]1O[C@H](CO)[C@H](O)[C@H](O)[C@H]1O)[C@H](O)[C@H](O)CCC . 96

---

We begin with a simple list: items and their reported Activity.
Assay: Induction of IFN gamma secretion in C57BL/6 mouse spleen cells at 100 ng/ml after 72 hrs relative to OCH
Type: functional
Your answer should be a plain number; it is taken to be in %.

Example results:
- Molecular String: "CCCCCCCCCCCCCCCCCCCCCCCC(=O)N[C@@H](CO[C@H]1O[C@H](CCl)[C@H](O)[C@H](O)[C@H]1O)[C@H](O)[C@H](O)Cc1ccccc1"
  Observed Property: "Activity"
  Number: 284
- Molecular String: "CCCCCCCCCCCCCCCCCCCCCCCCCCCC(=O)N[C@@H](CO[C@H]1O[C@H](CO)[C@H](O)[C@H](O)[C@H]1O)[C@H](O)[C@H](O)CCCCC"
  Observed Property: "Activity"
  Number: 761
- Molecular String: "CCCCCCCCCCCCCCCCCCCC(=O)N[C@@H](CO[C@H]1O[C@H](CO)[C@H](O)[C@H](O)[C@H]1O)[C@H](O)[C@H](O)CCCCC"
  Observed Property: "Activity"
  Number: 9
- Molecular String: "CCCCCCCCCCCCCCCCCCCCCCCC(=O)N[C@@H](CO[C@H]1O[C@H](CCl)[C@H](O)[C@H](O)[C@H]1O)[C@H](O)[C@H](O)CC1CCCC1"
  Observed Property: "Activity"
  Number: 74
- Molecular String: "CCCCCCCCCCCCCCCCCCCCCCCCC(=O)N[C@@H](CO[C@H]1O[C@H](CO)[C@H](O)[C@H](O)[C@H]1O)[C@H](O)[C@@H](O)CCCCC"
  Observed Property: "Activity"
  Number: 103

Input CCCCCCCCCCCCCCCCCCCCCCCC(=O)N[C@@H](CO[C@H]1O[C@H](CO)[C@H](O)[C@H](O)[C@H]1O)[C@H](O)[C@H](O)CCCC , output reported Activity. 112

---

Assay: Induction of IL4 secretion in C57BL/6 mouse spleen cells at 100 ng/ml after 72 hrs relative to OCH
Type: functional
Listing of recorded Activity by entry.
# number only, unit % dropped from output

Identify Activity associated with the molecule CCCCCCCCCCCCCCCCCCCCCCCC(=O)N[C@@H](CO[C@H]1O[C@H](CO)[C@H](O)[C@H](O)[C@H]1O)[C@H](O)[C@H](O)CCCCC 100

Specify reported Activity for the molecule shown: CCCCCCCCCCCCCCCCCCCCCCCC(=O)N[C@@H](CO[C@H]1O[C@H](CO)[C@H](O)[C@H](O)[C@H]1O)[C@H](O)[C@H](O)CC 102

# return recorded Activity for entry CCCCCCCCCCCCCCCCCCCCCCCCCC(=O)N[C@@H](CO[C@H]1O[C@H](CO)[C@H](O)[C@H](O)[C@H]1O)[C@H](O)[C@H](O)CCCCCCCCCCCCCC [RGI-7000] 128
